Entry source: PubChem BioAssay

System: Wnt5a (protein binding on small-molecule microarray)
Experiment: Wnt5a binders on small-molecule microarray, primary screen, biophysical, 635/667 nm fluorescence (AID 1142);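 further: fluorescence read at 667 nm with signal to noise per printed feature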
Conditions: 635 nm fluorescence, higher = more signal
assay_metric: composite z-score
// return a plain number; no unit text

>>> result_number("C=C(CCCC)/C(=C/C[C@@H](OC(C)=O)c1ccc(OCCO)cc1)c1cnc2ccccc2c1")
-0.0157

Query: Find the recorded composite z-score belonging to COc1ccc([Si](C)(C)[C@@H]2[C@@H](CC(=O)N3CCC[C@H]3CO)O[C@]3(C(=O)N(c4ccccc4)c4ccccc43)[C@H]2C)cc1 and report it.
Reply: 0.155

Query: Item: NC(=O)[C@@H]1[C@H]2C(=O)O[C@H](c3ccccc3)[C@H](c3ccccc3)N2[C@H](c2ccc(O)cc2)[C@@]12C(=O)Nc1ccccc12
Reply: -0.766

Query: # repeat for COCCOC(=O)N1C(=O)[C@@]2(c3cc(C#CCC(C(=O)OC)C(=O)OC)ccc31)[C@H](C(=O)N1CCN(c3ncccn3)CC1)[C@H]1C(=O)O[C@H](c3ccccc3)[C@H](c3ccccc3)N1[C@@H]2c1ccccc1OCCO
Reply: 0.833

Query: Quick one: CC(=O)NCCCC[C@@H]1NC(=O)[C@H]2C[C@@H](C(=O)NCCCCCCNC(=O)CS)[C@@H](c3ccc(O)cc3)N2C1=O
Reply: 0.151

Query: Cool, now O=C1O[C@H](c2ccccc2)[C@H](c2ccccc2)N2[C@H]1[C@@H](C(=O)N1CCCCCCC1)[C@]1(C(=O)Nc3ccc(C#CC4=CCCCC4)cc31)[C@H]2c1ccc(OCCO)cc1
Reply: 1.79
